# target of assay: T1, Rhesus macaque CD4-HIS (Acro Biosystems, Cat. CD4-C52H7) (rhesus macaque, UniProt P16003 26-390)
# T1 construct: Bought reagent; also called Rhesus CD4; rhesus CD4-HIS; not shown: His tag
# T1 sequence (P16003 26-390 limits assumed): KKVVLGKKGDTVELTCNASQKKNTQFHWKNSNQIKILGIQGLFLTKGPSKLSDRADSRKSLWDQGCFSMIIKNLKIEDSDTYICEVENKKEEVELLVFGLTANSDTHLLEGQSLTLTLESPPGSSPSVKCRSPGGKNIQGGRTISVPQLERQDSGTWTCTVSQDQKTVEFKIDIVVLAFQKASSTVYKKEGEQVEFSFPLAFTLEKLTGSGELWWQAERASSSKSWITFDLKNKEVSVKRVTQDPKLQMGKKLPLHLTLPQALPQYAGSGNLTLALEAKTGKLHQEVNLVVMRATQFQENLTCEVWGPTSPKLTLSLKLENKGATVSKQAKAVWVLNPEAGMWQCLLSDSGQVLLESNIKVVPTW
# protocol details: BLI (Octet Red384); Ab on anti-mouse Fc (AMC) sensor; rhesus CD4-HIS 100/50/25 nM; global 1:1 fit;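 note: antibodies loaded at 10 µg/mL, an unrelated mouse-derived antibody served as internal reference, curves fit over association and dissociation phases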
Provide the reported pKd of each item.
Scale: negative log10 of molar concentration, which is what pKd denotes.

Lookup: In one line, give reported pKd of the entry 75110_12C19A (antibody, V domains shown, Tested as antibody purified from AlivaMab Mouse hybridoma supernatant (human variable domains, kappa; mouse Fc, captured on anti-mouse IgG Fc sensors); also called ADS75110 purified AMM Ab) VH: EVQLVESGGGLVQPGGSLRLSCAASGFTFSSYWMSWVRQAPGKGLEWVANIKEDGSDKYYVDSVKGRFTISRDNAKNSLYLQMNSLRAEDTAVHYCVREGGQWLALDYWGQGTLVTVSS VL: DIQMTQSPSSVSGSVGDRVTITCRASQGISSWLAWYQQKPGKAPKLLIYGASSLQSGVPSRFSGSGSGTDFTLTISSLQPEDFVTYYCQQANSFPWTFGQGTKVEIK .
Found: 7.80

Lookup: In one line, give reported pKd of the entry 75110_08F20A (antibody, V domains shown, Tested as antibody purified from AlivaMab Mouse hybridoma supernatant (human variable domains, kappa; mouse Fc, captured on anti-mouse IgG Fc sensors); also called ADS75110 purified AMM Ab) VH: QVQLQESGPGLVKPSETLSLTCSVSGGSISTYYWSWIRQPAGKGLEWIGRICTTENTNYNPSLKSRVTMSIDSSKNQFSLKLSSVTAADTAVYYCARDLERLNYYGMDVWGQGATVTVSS VL: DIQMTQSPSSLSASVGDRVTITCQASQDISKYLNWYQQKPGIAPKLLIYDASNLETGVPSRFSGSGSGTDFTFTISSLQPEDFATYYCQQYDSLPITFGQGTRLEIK .
Found: 7.96

Lookup: In one line, give reported pKd of the entry 75110_13C13A (antibody, V domains shown, Tested as antibody purified from AlivaMab Mouse hybridoma supernatant (human variable domains, kappa; mouse Fc, captured on anti-mouse IgG Fc sensors); also called ADS75110 purified AMM Ab) VH: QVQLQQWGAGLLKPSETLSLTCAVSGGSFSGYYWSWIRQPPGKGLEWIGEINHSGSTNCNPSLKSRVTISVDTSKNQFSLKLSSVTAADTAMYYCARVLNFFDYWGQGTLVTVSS VL: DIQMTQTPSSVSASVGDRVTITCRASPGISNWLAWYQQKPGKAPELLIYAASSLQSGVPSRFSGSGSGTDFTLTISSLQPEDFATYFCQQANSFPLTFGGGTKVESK .
Found: 8.08
